The origin of these recorded values is patent US6545049B1.

property: melting point

// known answers, use as guide
CCCCCCCOc1cc2c(cc1C(=O)c1ccc(C(=O)NO)cc1)C(C)(C)CCC2(C)C; 200 to 205 °C
CCCCOc1cc2c(cc1C(=O)c1ccc(C(=O)O)cc1)C(C)(C)CCC2(C)C; 207 to 210 °C

Lab book: melting point of CCCCOc1cc2c(cc1C=Cc1ccc(C(=O)O)cc1)C(C)(C)CCC2(C)C noted as 194 to 196 °C

Lab book: melting point of Cc1cc2c(cc1C(=O)c1ccc(C(=O)NOCc3ccccc3)cc1)C(C)(C)CCC2(C)C noted as 169 to 172 °C
